meta.source: ChEMBL document CHEMBL5113443

# Test Target: DNA repair protein RAD51 homolog 1 (Homo sapiens) (UniProt Q06609)
# Sequence (whole entry): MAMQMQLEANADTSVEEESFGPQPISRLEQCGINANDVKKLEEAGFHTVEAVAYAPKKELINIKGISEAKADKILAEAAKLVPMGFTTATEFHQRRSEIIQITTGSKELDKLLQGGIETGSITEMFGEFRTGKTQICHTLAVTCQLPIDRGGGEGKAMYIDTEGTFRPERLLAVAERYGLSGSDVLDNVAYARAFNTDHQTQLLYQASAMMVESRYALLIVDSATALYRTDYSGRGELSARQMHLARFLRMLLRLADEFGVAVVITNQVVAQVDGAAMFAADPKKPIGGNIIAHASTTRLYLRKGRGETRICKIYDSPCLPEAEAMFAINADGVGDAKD
# Measurement Notes: Binding affinity to RAD51 (158 to 180 residues) (unknown origin) assessed as beta-turn content at 15 uM by circular dichroism spectroscopy (reference value: 16.2%)
Where a SMILES comes first, the peptide text is derived from it. The star is where a group is joined. X1 = O=C(c1cncc(C(F)(F)F)c1)*
Readout Kind: Activity (%)
The figure you give is taken to be in %; do not add the unit.

CC(C)C[C@H](NC(=O)[C@H](Cc1ccc(O)cc1)NC(=O)c1cncc(C(F)(F)F)c1)C(=O)N[C@@H](CCC(N)=O)C(=O)N[C@@H](CC(N)=O)C(=O)N[C@H](C(=O)N[C@@H](Cc1ccccc1)C(=O)N[C@@H](CCCCN)C(=O)N[C@H](C(=O)N[C@@H](CO)C(=O)N[C@@H](CCCCN)C(=O)N[C@@H](CCCNC(=N)N)C(=O)N[C@@H](CCC(N)=O)C(=O)N[C@@H](CO)C(=O)N[C@@H](Cc1ccccc1)C(=O)N[C@@H](C)C(=O)N1CCC[C@H]1C(N)=O)C(C)C)[C@@H](C)O (X1-YLQNTFKVSKRQSFAP-NH2) :: 16.5

# context switch: different molecule, same Activity
May I ask what Activity has been recorded for CC(C)C[C@H](NC(=O)[C@@H](N)Cc1ccc(O)cc1)C(=O)N[C@@H](CCC(N)=O)C(=O)N[C@@H](CC(N)=O)C(=O)N[C@H](C(=O)N[C@@H](Cc1ccccc1)C(=O)N[C@@H](CCCCN)C(=O)N[C@H](C(=O)N[C@@H](CO)C(=O)N[C@@H](CCCCN)C(=O)N[C@@H](CCCNC(=N)N)C(=O)N[C@@H](CCC(N)=O)C(=O)N[C@@H](CO)C(=O)N[C@@H](Cc1ccccc1)C(=O)N[C@@H](C)C(=O)N1CCC[C@H]1C(=O)O)C(C)C)[C@@H](C)O (H-YLQNTFKVSKRQSFAP-OH) ? 26.4

* * *

# Test Target: DNA repair protein RAD51 homolog 1 (Homo sapiens)
# Measurement Notes: Binding affinity to RAD51 (158 to 180 residues) (unknown origin) assessed as binding constant by fluorescence spectroscopy
Where a SMILES comes first, the peptide text is derived from it. The star is where a group is joined. Nicotinoyl(6-CF3) = O=C(c1ccc(C(F)(F)F)nc1)*
Recorded measurements of Binding constant, one per entry

CC(C)C[C@H](NC(=O)[C@@H](N)Cc1ccc(O)cc1)C(=O)N[C@@H](CCC(N)=O)C(=O)N[C@@H](CC(N)=O)C(=O)N[C@H](C(=O)N[C@@H](Cc1ccccc1)C(=O)N[C@@H](CCCCN)C(=O)N[C@H](C(=O)N[C@@H](CO)C(=O)N[C@@H](CCCCN)C(=O)N[C@@H](CCCNC(=N)N)C(=O)N[C@@H](CCC(N)=O)C(=O)N[C@@H](CO)C(=O)N[C@@H](Cc1ccccc1)C(=O)N[C@@H](C)C(=O)N1CCC[C@H]1C(=O)O)C(C)C)[C@@H](C)O (H-YLQNTFKVSKRQSFAP-OH) :: 0.33 10^4/M

Please find the next compound below.
Entry CC(C)C[C@H](NC(=O)[C@H](Cc1ccc(O)cc1)NC(=O)c1ccc(C(F)(F)F)nc1)C(=O)N[C@@H](CCC(N)=O)C(=O)N[C@@H](CC(N)=O)C(=O)N[C@H](C(=O)N[C@@H](Cc1ccccc1)C(=O)N[C@@H](CCCCN)C(=O)N[C@H](C(=O)N[C@@H](CO)C(=O)N[C@@H](CCCCN)C(=O)N[C@@H](CCCNC(=N)N)C(=O)N[C@@H](CCC(N)=O)C(=O)N[C@@H](CO)C(=O)N[C@@H](Cc1ccccc1)C(=O)N[C@@H](C)C(=O)N1CCC[C@H]1C(N)=O)C(C)C)[C@@H](C)O ({Nicotinoyl(6-CF3)}-YLQNTFKVSKRQSFAP-NH2) has what Binding constant? 1.97 10^4/M
